src = patent US10772928B2

Record form. Attribute: FoldChange between the prey Avg spectra of the bait and control purifications. Fill in for each entry.
TARGET_OR_SYSTEM: T1, nSR100 (Mus musculus, UniProt Q8BKA3)
T1 construct: host or cells: mouse N2A cells
T1 sequence (Q8BKA3 1-608): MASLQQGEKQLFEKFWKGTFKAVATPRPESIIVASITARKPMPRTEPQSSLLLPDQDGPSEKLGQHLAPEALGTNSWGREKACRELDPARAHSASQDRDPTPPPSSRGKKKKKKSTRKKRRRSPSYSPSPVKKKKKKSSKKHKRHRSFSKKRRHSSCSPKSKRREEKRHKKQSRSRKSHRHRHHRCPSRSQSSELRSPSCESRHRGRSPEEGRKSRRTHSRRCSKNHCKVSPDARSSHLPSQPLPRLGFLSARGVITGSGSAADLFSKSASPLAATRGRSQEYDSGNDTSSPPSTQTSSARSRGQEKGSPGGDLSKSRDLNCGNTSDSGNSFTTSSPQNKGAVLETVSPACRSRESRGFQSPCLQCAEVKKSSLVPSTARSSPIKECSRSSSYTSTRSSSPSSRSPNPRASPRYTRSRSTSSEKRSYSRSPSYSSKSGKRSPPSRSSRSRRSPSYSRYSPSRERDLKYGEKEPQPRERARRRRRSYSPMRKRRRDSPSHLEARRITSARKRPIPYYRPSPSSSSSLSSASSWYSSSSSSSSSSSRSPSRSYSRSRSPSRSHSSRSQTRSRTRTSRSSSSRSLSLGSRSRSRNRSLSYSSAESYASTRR
EXPERIMENT_NOTES: AP-MS nSR100 interaction partners from mouse N2A cells (Table 5)
Format: binding
PROTOCOL_CONDITIONS: bait Srrm4, 0.1 added to prevent division by 0
Numbers only.

MOLECULE | RECORDED_RESULT
Snip1 (protein, UniProt Q8BIZ6 1-383, looked up) Smad nuclear-interacting …: MKAGKSERERSGRRRHRSGDALTTVVVKQERLSPEPVAHRRPDAPAASLSPPAAEPGHSGHRGSRARSPAKKKSKSSGRRSKSPRTKRSQSPHYPMVKVKQEREDHPRRGREDRQHREPSEQEHRRARNSERDRHRGHSRQGRSSDERPVSGQDRDRDSQNLQAQEEERDFHNARRREHRQQNESAGSEAQEVIPRPAGNRSKEVPVKEKPSFELSGALLEDTNTFRGVVIKYSEPPEARIPKKRWRLYPFKNDEVLPVMYIHRQSAYLLGRHRRIADIPIDHPSCSKQHAVFQYRLVEYTRADGTVGRRVKPYIIDLGSGNGTFLNNKRIEPQRYYELKEKDVLKFGFSSREYVLLHESSDTSELDRKEDEDDEEEEMVSDS | 70

Now turn to the next molecule.
Query block: Let me know recorded FoldChange between the prey Avg spectra of the bait and control purifications for Luc7l (protein, UniProt Q9CYI4 1-371, looked up) Putative RNA-binding protein …: MSAQAQMRALLDQLMGTARDGDETRQRVKFTDDRVCKSHLLDCCPHDILAGTRMDLGECTKIHDLALRADYEIASKERDLFFELDAMDHLESFIAECDRRTELAKKRLAETQEEISAEVSAKAEKVHELNEEIGKLLAKAEQLGAEGNVDESQKILMEVEKVRAKKKEAEEEYRNSMPASSFQQQKLRVCEVCSAYLGLHDNDRRLADHFGGKLHLGFIQIREKLDQLRKTVAEKQEKRNQDRLRRREEREREERLGRRSGSRTRDRRRSRSRDRRRRRSRSTSRERRKFSRSRSRDRYRRHRSRSRSHSRGHRRASRDRSTKYKFSRERSLREESWEYGRNERGPTDWRLENSNGKTASRRSEEKEAGEI , thanks.
Result block: 3.17
